Target: T1, human B7-H4 extracellular domain (human, UniProt Q7Z7D3 29-258)
T1 construct: For SPR it says only human B7-H4 ECD; also called Hu B7-H4 ECD; huB7-H4 ECD
T1 sequence: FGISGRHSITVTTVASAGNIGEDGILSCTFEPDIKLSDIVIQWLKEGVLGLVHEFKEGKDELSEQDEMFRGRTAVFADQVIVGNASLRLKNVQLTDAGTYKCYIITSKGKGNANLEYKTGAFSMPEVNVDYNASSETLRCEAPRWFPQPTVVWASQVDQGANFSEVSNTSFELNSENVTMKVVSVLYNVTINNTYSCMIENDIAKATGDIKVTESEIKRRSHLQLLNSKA
Assay: SPR Biacore 8K 25 C; mAb captured on anti-human Fc, huB7-H4 ECD analyte, 1:1 fit;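 further: antibodies tested as IgG1, running buffer HBS-EP+ at pH 7.4, rate constants and affinity from a 1:1 Langmuir model fit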

BINDER	Kd / nM
B7-H4 antibody 0048 (antibody, human IgG1, kappa, V domains shown, also called 11F12) VH: EVQLLESGGGLVQPGGSLRLSCAASGFTFSSYAMKWVRQAPGKGLEWVSTTSGSGGTTYYADSVKGRFTISRDNSKNTLYLQMNSLRAEDTAVYYCAKAGWAAAFDYWGQGTLVTVSS VL: DIQLTQFPSTLSASVGDRITITCRASQSISDWLAWYQQKPGKAPKLLIYKASSLESGVPSRFSGSGSGTEFTLTISSLQPDDFATYYCQQCNSYWTFGQGTKVEIKR	0.83
B7-H4 antibody 0056 (antibody, human IgG1, kappa, V domains shown, also called 33G4) VH: EVQLLESGGGLVQPGGSLRLSCAASGFTFSTYAMNWVRQAPGKGLAWVSAISGSGGSTYYADSVKGRFTISRDDSKNTLYLQMNSLRAEDTAVYYCAKVDVVARYYGMDVWGQGTTVTVSS VL: DIQMTQSPSTLSASVGDRVTITCRASQSISGWLAWYQQKPGKAPKLLIYEASSLESGVPSRFSGSGSGTEFTLTISSLQPDDFATYYCQQYKSYSWTFGQGTKVEIKR	0.62
